Assay: cytotoxicity in BJeH fibroblasts, dose response, counter-screen for Ras selective lethality project, BJeH cells, dry powder, set 2 (AID 493051)
Conditions: BJeH fibroblast viability, Alamar Blue fluorescence, 48 h; at 68 µM (top of the series)
Field: label. Allowed values: yes (activity change, negative = viability loss < 8%) or no (activity change, negative = viability loss >= 8%).

These solved cases illustrate the format of a correct answer.
molecular string: COc1ccccc1N1CCN(C(=O)c2noc(C)c2[N+](=O)[O-])CC1
assigned label: no
//
molecular string: Cc1onc(C(=O)NCc2ccc(F)cc2)c1[N+](=O)[O-]
assigned label: no
//
molecular string: Cc1onc(C(=O)N2CCOCC2)c1[N+](=O)[O-]
assigned label: no
//
molecular string: Cc1cc(C(=O)N2CCN(Cc3ccccc3)CC2)no1
assigned label: yes

Here's the next entry for you.
I'd appreciate it if you could check whether Cc1onc(C(=O)N2CCN(Cc3ccccc3)CC2)c1[N+](=O)[O-] has activity change, negative = viability loss smaller than 8%.
yes
